Biological target: huPD-L1 (Homo sapiens, UniProt Q9NZQ7)
Sequence (Q9NZQ7 19-290): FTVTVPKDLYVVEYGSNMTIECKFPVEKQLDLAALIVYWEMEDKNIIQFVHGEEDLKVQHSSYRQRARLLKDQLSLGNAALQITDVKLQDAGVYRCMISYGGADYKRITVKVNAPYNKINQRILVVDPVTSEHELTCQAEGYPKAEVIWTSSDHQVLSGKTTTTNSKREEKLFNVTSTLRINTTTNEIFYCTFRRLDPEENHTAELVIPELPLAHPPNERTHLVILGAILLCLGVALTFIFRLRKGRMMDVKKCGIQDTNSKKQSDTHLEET
Assay: Flow binding to CHO cells stably expressing PD-L1
Set-up: huCTLA4 and huPD-L1, full-length mammalian surface expression constructs were generated; expressed in transfected cells; host or cells: CHO cells, lentiviral transduction, sorted to >98% purity
Conditions: Table E11; CHO cells stably expressing PD-L1; 33.3 nM
endpoint_label: PD-L1 MFI at 33.3 nM
Numbers only.

For this molecule ( E35D/D46E/M47V/V68M/L85Q (protein, UniProt P33681 35-288, looked up, variant E35D D46E M47V V68M L85Q) T-lymphocyte activation …: VIHVTKEVKEVATLSCGHNVSVEELAQTRIYWQKDKKMVLTMMSGEVNIWPEYKNRTIFDITNNLSIMILALRPSDEGTYECVVQKYEKDAFKREHLAEVTLSVKADFPTPSISDFEIPTSNIRRIICSTSGGFPEPHLSWLENGEELNAINTTVSQDPETELYAVSSKLDFNMTTNHSFMCLIKYGHLRVNQTFNWNTTKQEHFPDNLLPSWAITLISVNGIFVICCLTYCFAPRCRERRRNERLRRESVRPV ), measured PD-L1 MFI at 33.3 nM is 1723
